molecular target: T1, Human LILRB2 on transiently transfected HEK293-6E cells (human, UniProt Q8N423 22-597); experiment: flow cytometry, transiently transfected HEK293-6E cells
T1 construct: whole, on cells; also called hLILRB2
T1 sequence (Q8N423 22-597): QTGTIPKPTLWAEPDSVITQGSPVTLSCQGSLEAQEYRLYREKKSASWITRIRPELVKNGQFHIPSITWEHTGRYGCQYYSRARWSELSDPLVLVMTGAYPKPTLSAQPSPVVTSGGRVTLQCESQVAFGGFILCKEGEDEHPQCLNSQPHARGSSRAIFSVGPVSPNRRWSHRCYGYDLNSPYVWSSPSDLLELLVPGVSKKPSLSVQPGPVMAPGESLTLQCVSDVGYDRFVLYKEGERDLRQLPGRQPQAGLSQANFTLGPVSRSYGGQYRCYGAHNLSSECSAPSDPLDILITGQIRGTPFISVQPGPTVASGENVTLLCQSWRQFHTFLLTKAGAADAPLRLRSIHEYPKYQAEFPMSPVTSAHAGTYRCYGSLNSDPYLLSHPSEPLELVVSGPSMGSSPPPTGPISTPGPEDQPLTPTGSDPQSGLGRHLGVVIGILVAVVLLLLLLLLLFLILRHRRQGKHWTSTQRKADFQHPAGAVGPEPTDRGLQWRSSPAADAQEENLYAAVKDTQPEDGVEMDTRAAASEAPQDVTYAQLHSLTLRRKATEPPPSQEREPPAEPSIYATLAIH
measured_property: Bmax (MFI)
Answers are plain numbers, in MFI.

Answered cases to consult:
* B2H1-35 (antibody, V domains shown, Humanized variant, human IgG1 / kappa) VH: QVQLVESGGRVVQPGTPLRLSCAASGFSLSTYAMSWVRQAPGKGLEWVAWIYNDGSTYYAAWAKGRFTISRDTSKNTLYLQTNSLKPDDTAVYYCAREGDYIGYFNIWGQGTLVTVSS VL: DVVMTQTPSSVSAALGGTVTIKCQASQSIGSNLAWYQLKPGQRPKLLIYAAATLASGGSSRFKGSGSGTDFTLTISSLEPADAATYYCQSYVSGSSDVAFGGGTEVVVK | 10300
* B2H1-11 (antibody, V domains shown, Humanized variant, human IgG1 / kappa) VH: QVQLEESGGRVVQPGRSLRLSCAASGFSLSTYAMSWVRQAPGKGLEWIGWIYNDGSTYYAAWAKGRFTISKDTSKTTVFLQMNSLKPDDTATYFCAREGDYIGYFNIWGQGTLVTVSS VL: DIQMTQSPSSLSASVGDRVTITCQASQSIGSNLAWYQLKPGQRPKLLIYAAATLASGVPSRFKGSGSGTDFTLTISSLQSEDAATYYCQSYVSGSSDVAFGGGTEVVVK | 11000

Let's switch to this binder now.
The reported Bmax (MFI) of the binder B2H1-52 (antibody, V domains shown, Humanized variant, human IgG1 / kappa) VH: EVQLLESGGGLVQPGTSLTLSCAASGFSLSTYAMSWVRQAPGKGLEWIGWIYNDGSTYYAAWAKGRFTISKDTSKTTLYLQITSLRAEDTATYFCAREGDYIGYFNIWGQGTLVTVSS VL: DVVMTQSPSSVSASLGDRVTITCQASQSIGSNLAWYQQKPGQAPKLLIYAAATLASGVPSRFKGSGSGTDFTLTITSLQPADFATYYCQSYVSGSSDVAFGGGTKVEIK was 10300
